- tgt: T1, human CD30 (commercial, conjugated to digoxigenin) (human, UniProt P28908 19-379, limits assumed, conjugated to digoxigenin (DIG))
- T1 sequence (looked up): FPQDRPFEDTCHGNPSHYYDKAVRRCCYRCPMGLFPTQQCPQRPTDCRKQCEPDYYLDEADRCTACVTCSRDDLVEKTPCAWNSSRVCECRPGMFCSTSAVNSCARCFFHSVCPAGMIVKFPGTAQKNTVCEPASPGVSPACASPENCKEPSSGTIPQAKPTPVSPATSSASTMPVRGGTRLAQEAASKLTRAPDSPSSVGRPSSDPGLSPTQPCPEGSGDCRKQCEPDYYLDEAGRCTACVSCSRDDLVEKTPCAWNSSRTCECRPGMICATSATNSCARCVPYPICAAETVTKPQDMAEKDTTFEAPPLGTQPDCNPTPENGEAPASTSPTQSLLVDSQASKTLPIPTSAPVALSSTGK
- assayProcedure: AlphaScreen competition
Recorded Fold IC50 vs H3/L3, one value per entry.

binder: AC10 H3/L3.24 (antibody, IgG1, name in Kabat numbering, V domains shown) VH: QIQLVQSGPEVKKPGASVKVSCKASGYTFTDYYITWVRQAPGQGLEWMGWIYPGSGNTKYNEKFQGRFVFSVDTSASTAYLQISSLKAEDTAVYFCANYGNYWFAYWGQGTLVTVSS VL: DIVLTQSPDSLAVSLGERATINCKASQSVDFDGDSDMNWYQQKPGQPPKVLIYAASNLESGIPARFSGSGSGTDFTLTINSLEAEDAATYYCQQSNEDPWTFGGGTKVEIK
Fold IC50 vs H3/L3 (fold): 0.46
//
binder: AC10 H3/L3.20 (antibody, IgG1, name in Kabat numbering, V domains shown) VH: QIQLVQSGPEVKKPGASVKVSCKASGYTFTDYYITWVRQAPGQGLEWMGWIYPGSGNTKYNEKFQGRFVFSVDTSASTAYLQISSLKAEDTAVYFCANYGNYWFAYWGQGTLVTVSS VL: DIVLTQSPDSLAVSLGERATINCKASQSVDFDGYSYMNWYQQKPGQPPKVLIYAASNLESGIPARFSGSGSGTDFTLTINSLEAEDAATYYCQQSNEDPWTFGGGTKVEIK
Fold IC50 vs H3/L3 (fold): 0.78
//
binder: AC10 H3/L3.51 (antibody, IgG1, name in Kabat numbering, V domains shown) VH: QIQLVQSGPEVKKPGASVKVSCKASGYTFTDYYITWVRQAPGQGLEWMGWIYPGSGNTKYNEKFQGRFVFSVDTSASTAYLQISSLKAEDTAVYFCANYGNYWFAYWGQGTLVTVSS VL: DIVLTQSPDSLAVSLGERATINCKASQSVDFDGDSYMNWYQQKPGQPPKVLIYAASNLESGIPARFSGSGSGTDFTLTINSLEAEDAATYYCQQYNEDPWTFGGGTKVEIK
Fold IC50 vs H3/L3 (fold): 0.02
